Would you kindly list Viability for each of these compounds?
- Tested on: C2C12 myotubes
- CONDITION DETAILS: 20 μM; composite Z-score vs DMSO
Give the value as a plain number.

Fill blank: measured Viability of the compound [H]/N=C(\N/C(=N/[H])NCCCCCCNC(=N)NC(=N)Nc1ccc(Cl)cc1)Nc1ccc(Cl)cc1 [chlorhexidine] is ____.
−0.976

Fill blank: measured Viability of the compound Nc1ccc(C(=O)[O-])cc1.[K+] [potassium p-aminobenzoate] is ____.
−0.277

Fill blank: measured Viability of the compound NC(=O)c1cc([N+](=O)[O-])cc([N+](=O)[O-])c1 [nitromide] is ____.
−0.259

Fill blank: measured Viability of the compound CC(C)C[C@H]1C(=O)N2CCC[C@H]2[C@]2(O)O[C@](NC(=O)[C@@H]3C=C4c5cccc6[nH]c(Br)c(c56)C[C@H]4N(C)C3)(C(C)C)C(=O)N12 [bromocriptine] is ____.
1.142

----------
- System: nuOXPHOS transcripts
- Format: cell-based, mouse
- CONDITION DETAILS: composite Z-score vs DMSO wells; Conc 20 μM
The following ranges of nucOX define the classes used here: band 1 (below -0.6), band 2 (-0.6 to below -0.2), band 3 (-0.2 or more)

Bin this entry: Cc1c(N(C)CS(=O)(=O)[O-])c(=O)n(-c2ccccc2)n1C.[Na+]
band 1

Bin this entry: C#CC1(O)CC[C@H]2[C@@H]3CCC4=CC(=O)CC[C@@H]4[C@H]3CC[C@@]21CC (mixture of isomers)
band 3

Bin this entry: C[C@]12CC[C@H]3[C@@H](CC[C@]4(O)C[C@@H](O)CC[C@]34C=O)[C@@]1(O)CC[C@@H]2C1=CC(=O)OC1
band 2

Bin this entry: Cc1cc(NC(=O)C2=C(O)c3ccccc3S(=O)(=O)N2C)no1
band 2

Bin this entry: CC(=O)O[C@H]1C[C@H](O[C@H]2[C@@H](O)C[C@H](O[C@H]3[C@@H](O)C[C@H](O[C@H]4CC[C@@]5(C)[C@H](CC[C@@H]6[C@@H]5C[C@@H](O)[C@]5(C)[C@@H](C7=CC(=O)OC7)CC[C@]65O)C4)O[C@@H]3C)O[C@@H]2C)O[C@H](C)[C@H]1O[C@@H]1O[C@H](CO)[C@@H](O)[C@H](O)[C@H]1O [lanatoside C]
band 1

Bin this entry: C[N+](C)(C)CCCCCC[N+](C)(C)C [hexamethonium bromide]
band 1

Bin this entry: OCc1ccccc1O
band 2

Bin this entry: C=C(C)[C@@H]1[C@H]2OC(=O)[C@@H]1[C@]1(O)C[C@H]3O[C@]34C(=O)O[C@H]2[C@]14C
band 2

Bin this entry: NCCNC(=O)c1ccc(Cl)cc1 [N-(2-aminoethyl)-4-chlorobenzamide]
band 3

Bin this entry: C[C@]12CC[C@@H]3c4ccc(O)cc4CC[C@H]3[C@@H]1CC[C@@H]2OC(=O)CCC1CCCC1 [estradiol cypionate]
band 3

Bin this entry: CCn1cc(C(=O)O)c(=O)c2cc3c(cc21)OCO3
band 3

----------
- Tested on: reactive oxygen species
- Format: cell-based, mouse
- CONDITION DETAILS: composite Z-score vs DMSO wells; Conc 20 μM
Could you label it 1 (yes) if measured ROS is 0.8 or higher, and 0 (no) otherwise?

Hi team, for [H]/N=C(/N)NS(=O)(=O)c1ccc(N)cc1 , is the recorded ROS at or above 0.8?
1 (yes)

Hi team, for COc1ccc(-c2cc(=O)c3c(O)cc(O[C@@H]4O[C@H](CO[C@@H]5O[C@@H](C)[C@H](O)[C@@H](O)[C@H]5O)[C@@H](O)[C@H](O)[C@H]4O)cc3o2)cc1O , is the recorded ROS at or above 0.8?
0 (no)

Hi team, for C#CC1(O)CC[C@H]2[C@@H]3CCC4=CC(=O)CC[C@@H]4[C@H]3CC[C@@]21CC (mixture of isomers) , is the recorded ROS at or above 0.8?
1 (yes)

Hi team, for C[C@@H]1CC[C@H]2[C@@H](C)C(=O)O[C@@H]3O[C@@]4(C)CC[C@@H]1[C@]32OO4 , is the recorded ROS at or above 0.8?
0 (no)

Hi team, for O=C1C(O)=C(O)C(=O)C(O)=C1O , is the recorded ROS at or above 0.8?
0 (no)

Hi team, for CN1C[C@H](C(=O)N[C@]2(C)O[C@@]3(O)[C@@H]4CCCN4C(=O)[C@H](Cc4ccccc4)N3C2=O)C[C@@H]2c3cccc4[nH]cc(c34)C[C@H]21 [dihydroergotamine] , is the recorded ROS at or above 0.8?
1 (yes)

Hi team, for CC(NCCC(c1ccccc1)c1ccccc1)c1ccccc1 (stereo not shown) , is the recorded ROS at or above 0.8?
1 (yes)
